Provenance of the data: the supplement of paper PMC6555819

Tested on: PPARg:RXRa 30nM:10nM, anti-RXR (NR concentration 30 nM, RXRa partner concentration 10 nM)
Assay method text: PBM binding z-score (relative to random genomic background probes); higher = stronger binding; sequences stand for … in GC…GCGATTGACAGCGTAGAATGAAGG
Observed property: PBM binding z-score
Give only the figure.

Biopolymer sequence: TCTTGTAGAGCAGCAGGTTAAGAAAGCTGGCCAA
PBM binding z-score: 1.29
--
Biopolymer sequence: TATACAGGGTCGAAGGCCAGAGTACGAATGTCGA
PBM binding z-score: 1.28
--
Biopolymer sequence: GCAACGAGGGCATTCGAGTTGATAGCATGGCGAT
PBM binding z-score: -0.488
--
Biopolymer sequence: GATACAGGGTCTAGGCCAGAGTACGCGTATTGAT
PBM binding z-score: -0.269
--
Biopolymer sequence: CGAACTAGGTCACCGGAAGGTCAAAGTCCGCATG
PBM binding z-score: 5.33

INPUT: Item TCGAGTAGGTTAGTCAGGGCATTCAGCCAACATA has what recorded PBM binding z-score?
OUTPUT: 1.13

INPUT: Item CATACAGAGTCAGCTAGGCCAGAGTAGGGACGGC has what recorded PBM binding z-score?
OUTPUT: -0.369

====

Each item that follows carries a reported PBM binding z-score.
Tested on: PPARg:RXRa 90nM:30nM, anti-RXR (NR concentration 90 nM, RXRa partner concentration 30 nM)
Assay method text: PBM binding z-score (relative to random genomic background probes); higher = stronger binding; sequences stand for … in GC…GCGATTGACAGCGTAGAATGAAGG
Give only the figure.

Consider the worked cases shown below.
Biopolymer sequence: CGTCCAATGTCATAGGAGGTCAGTGAAGACAGAT
Assayed system: PPARg:RXRa 90nM:30nM, anti-RXR (NR concentration 90 nM, RXRa partner concentration 30 nM)
Result: 0.565
--
Biopolymer sequence: TCGCCTAGGTCAGATCGGGCCAGTATACGCTATA
Assayed system: PPARg:RXRa 90nM:30nM, anti-RXR (NR concentration 90 nM, RXRa partner concentration 30 nM)
Result: 1.28
--
Biopolymer sequence: TAGCCTAGGTCATTGGCCAGTATACCACGCGAAC
Assayed system: PPARg:RXRa 90nM:30nM, anti-RXR (NR concentration 90 nM, RXRa partner concentration 30 nM)
Result: 1.44
--
Biopolymer sequence: TATATTAGTTGATTAGGGCAACCGAAACAGCGGA
Assayed system: PPARg:RXRa 90nM:30nM, anti-RXR (NR concentration 90 nM, RXRa partner concentration 30 nM)
Result: 0.819
--
Biopolymer sequence: CGTCCAAGGTCAGAGAGGTGAGTGAATGCCGAGT
Assayed system: PPARg:RXRa 90nM:30nM, anti-RXR (NR concentration 90 nM, RXRa partner concentration 30 nM)
Result: 1.78

INPUT: Item ATCTCTAGGTAAAAGGTCAGTGAATCCCGAGGAT has what recorded PBM binding z-score?
OUTPUT: 9.78

INPUT: Item TCTACCAGGCCAGAGGGTCACTCAAGAGGTACGG has what recorded PBM binding z-score?
OUTPUT: 3.44

INPUT: Item GGAACGAGGGCAGGTTGATAGCAGAGTTTGATGG has what recorded PBM binding z-score?
OUTPUT: 0.0591

INPUT: Item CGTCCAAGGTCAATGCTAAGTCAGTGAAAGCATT has what recorded PBM binding z-score?
OUTPUT: 2.55

INPUT: Item CCGACTGGGGCATAAGGTTACCAAAAGCCAGCCC has what recorded PBM binding z-score?
OUTPUT: 2.48

INPUT: Item TCGAATAGGTTAGGGGCATTCAGAATGGCGTCGA has what recorded PBM binding z-score?
OUTPUT: 2.56

INPUT: Item ATCTCTAGGTAACCAGTTCAGTGAAAGAGAGGAC has what recorded PBM binding z-score?
OUTPUT: 0.873
